target: smDAC (S. mutans diadenylate cyclase, CdaA/DacA family) (Streptococcus mutans, UniProt Q8DTC4); construct: recombinant smDAC (from 116aa to 265aa); assay: biochemical; parameters: HPLC quantification of conversion of ATP into c-di-AMP by recombinant smDAC; conditions: read-out: Normalized Enzymatic Inhibition (%)
Sequence (Q8DTC4 entry or part of it): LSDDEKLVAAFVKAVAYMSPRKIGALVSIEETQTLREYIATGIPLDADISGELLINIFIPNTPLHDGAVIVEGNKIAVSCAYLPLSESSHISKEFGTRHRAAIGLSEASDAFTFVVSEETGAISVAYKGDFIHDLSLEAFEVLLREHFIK
Where a name gives a salt, the structure may show the parent alone.
Below, each of the molecules is paired with its reported inhibition at 50 µM value.
outcomeMeasure: inhibition at 50 µM (%)

molecule="Oc1ccc2c(c1)OC[C@]1(O)Cc3cc(O)c(O)cc3[C@H]21 [NSC 8661, (+)-brazilin]" assayresult=77.8
molecule="Cc1ccc(C(=O)Nc2ccc(S(=O)(=O)O)c3cc(S(=O)(=O)O)cc(S(=O)(=O)O)c23)cc1NC(=O)c1cccc(NC(=O)Nc2cccc(C(=O)Nc3cc(C(=O)Nc4ccc(S(=O)(=O)O)c5cc(S(=O)(=O)O)cc(S(=O)(=O)O)c45)ccc3C)c2)c1 [suramin hexasodium salt]" assayresult=1.2
molecule="O=C1NC(=S)N/C1=C\\c1cc(Br)cc(Br)c1O [bromophenol thiohydantoin]" assayresult=3.7
molecule="O=C(OC[C@H]1O[C@@H](OC(=O)c2cc(O)c(O)c(OC(=O)c3cc(O)c(O)c(O)c3)c2)[C@H](OC(=O)c2cc(O)c(O)c(OC(=O)c3cc(O)c(O)c(O)c3)c2)[C@@H](OC(=O)c2cc(O)c(O)c(OC(=O)c3cc(O)c(O)c(O)c3)c2)[C@@H]1OC(=O)c1cc(O)c(O)c(OC(=O)c2cc(O)c(O)c(O)c2)c1)c1cc(O)c(O)c(OC(=O)c2cc(O)c(O)c(O)c2)c1 [tannic acid]" assayresult=22.2

Where do these numbers come from? They come from paper PMC11064632.
